Source: ChEMBL document CHEMBL1201862

Biological target: Large T antigen (Simian virus 40, UniProt P03070);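 note: Confirmatory-stage PubChem screen for compounds that inhibit SV40 T antigen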
Sequence (P03070 whole entry): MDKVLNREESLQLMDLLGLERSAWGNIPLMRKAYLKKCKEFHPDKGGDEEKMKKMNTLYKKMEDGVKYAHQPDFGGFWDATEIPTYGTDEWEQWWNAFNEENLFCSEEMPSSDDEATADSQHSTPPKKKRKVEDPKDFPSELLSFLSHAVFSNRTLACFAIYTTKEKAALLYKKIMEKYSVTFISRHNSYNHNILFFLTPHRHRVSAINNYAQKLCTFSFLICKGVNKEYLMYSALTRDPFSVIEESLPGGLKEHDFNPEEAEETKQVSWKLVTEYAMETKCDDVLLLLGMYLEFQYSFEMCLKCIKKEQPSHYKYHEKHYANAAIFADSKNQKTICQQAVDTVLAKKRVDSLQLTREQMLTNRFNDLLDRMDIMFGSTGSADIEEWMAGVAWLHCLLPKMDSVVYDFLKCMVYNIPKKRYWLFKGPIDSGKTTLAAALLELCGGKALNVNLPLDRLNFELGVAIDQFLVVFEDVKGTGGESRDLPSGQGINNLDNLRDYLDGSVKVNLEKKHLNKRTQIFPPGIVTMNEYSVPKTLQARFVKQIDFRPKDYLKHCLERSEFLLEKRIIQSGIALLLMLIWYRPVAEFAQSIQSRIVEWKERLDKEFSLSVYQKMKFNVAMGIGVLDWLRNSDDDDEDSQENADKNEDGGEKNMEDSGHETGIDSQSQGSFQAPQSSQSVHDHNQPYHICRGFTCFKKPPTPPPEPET
Assay type: functional, Betapolyomavirus macacae
Active and inactive are the calls of the source.
Field: IC50. Provide a value for each of the compounds that follow.

Problem: Need IC50 of `CCNC(S)=Nc1cc(OCC)c(N2CCOCC2)cc1OCC` , thanks.
Solution: > 100 µM (active)

Problem: Need IC50 of CC(C)(C)n1nnnc1C(c1ccncc1)N1CCN(c2ccc(O)cc2)CC1 (stereo unspecified) , thanks.
Solution: 13.9 µM (active)

Problem: Need IC50 of `COc1cc(/C=N/Nc2nc(N3CCCC3)nc(N3CCCC3)n2)ccc1O` , thanks.
Solution: 15.2 µM (active)

Problem: Need IC50 of `CN(C)c1ccc(NC(=O)c2ccc(N3CCOCC3)nc2)cc1` , thanks.
Solution: 6.98 µM (active)

Problem: Need IC50 of `CC1=NOC(=O)/C1=C\c1ccc(-c2ccc(Cl)c(C(=O)O)c2)o1` , thanks.
Solution: 14.2 µM (active)

Problem: Need IC50 of `NS(=O)(=O)c1ccc(N=Nc2cnc(O)c(O)c2)cc1` , thanks.
Solution: 27.5 µM (active)

Problem: Need IC50 of `Cc1ccc(S(=O)(=O)Cc2cc(F)c([N+](=O)[O-])cc2[N+](=O)[O-])cc1` , thanks.
Solution: 4.86 µM (active)

Problem: Need IC50 of `O=C(O)c1ccc(-c2ccc(O)c(F)c2)cc1` , thanks.
Solution: 6.76 µM (active)

Problem: Need IC50 of `O=C(Nc1ccc2nc(-c3ccco3)c(-c3ccco3)nc2c1)NC1CC1` , thanks.
Solution: 39.6 µM (active)

Problem: Need IC50 of `CN(C)c1ccc(NC(=O)CSc2nc3c(c(=O)[nH]2)CCCC3)cc1` , thanks.
Solution: 5.87 µM (active)

Problem: Need IC50 of CCOc1ccccc1N1CSC2=C(C#N)C(c3c(OC)ccc4ccccc34)CC(=O)N2C1 (stereo unspecified) , thanks.
Solution: 78.8 µM (active)

====

Field: AC50. Provide a value for each of the compounds that follow.

Problem: Lab note: need AC50 for `Cc1cc(S(=O)(=O)NCCCN2CCOCC2)ccc1F` on Cytochrome P450 3A4 (Homo sapiens), anyone have it?
Solution: 28.2 µM (inconclusive)

Problem: Lab note: need AC50 for `CCCN1C2=NCCCN2c2ccccc21` on Cytochrome P450 3A4 (Homo sapiens), anyone have it?
Solution: 35.5 µM (inconclusive)

Problem: Lab note: need AC50 for `Cn1c2c(c(=O)n(C)c1=O)C(C(F)(F)F)(C(F)(F)F)NC(c1ccc(Cl)cc1)=N2` on Cytochrome P450 3A4 (Homo sapiens), anyone have it?
Solution: 15.8 µM (inconclusive)

Problem: Lab note: need AC50 for `CO/N=C1/c2cc(OC)ccc2O[C@@H](c2cccc(OC)c2)[C@H]1O` on Cytochrome P450 3A4 (Homo sapiens), anyone have it?
Solution: 6.31 µM (inconclusive)

Problem: Lab note: need AC50 for `COc1ccc(-c2nnn(Cc3nc(N)nc(N4CCOCC4)n3)n2)cc1OC` on Cytochrome P450 3A4 (Homo sapiens), anyone have it?
Solution: 28.2 µM (inconclusive)

Problem: Lab note: need AC50 for `Cc1ccc2c(c1)C1(SCCS1)C(=O)N2` on Cytochrome P450 3A4 (Homo sapiens), anyone have it?
Solution: 11.2 µM (inconclusive)

====

System: Streptococcus sp. 'group A'
Experiment: Streptococcus pyogenes SK(-)GAS viability under kanamycin – luminescence, BacTiterGlo, confirmation, counter-screen for streptokinase expression inhibitor project, dose response (AID 1900)
Assay type: functional, organism-based
Calls of active or inactive are those of the source.
Field: EC50. Provide a value for each of the molecules that follow.

Problem: Need EC50 of CNC(=S)N1CCN(c2c(F)cc3c(=O)c(C(=O)O)cn(C4CC4)c3c2OC)CC1C (centres undefined) , thanks.
Solution: 0.179 µM (active)

Problem: Need EC50 of O=C(NC(NC(=S)Nc1ccc(Cl)c(Cl)c1)C(Cl)(Cl)Cl)c1ccco1 (centres undefined) , thanks.
Solution: 4.32 µM (active)

Problem: Need EC50 of `Cc1ccc(-c2cc(C(=O)Nc3ccc(S(=O)(=O)Nc4cc(C)on4)cc3)c3ccccc3n2)c(C)c1` , thanks.
Solution: 12.1 µM (active)

Problem: Need EC50 of `Cc1cc(C)n(-c2nc(NC(C)(C)C)nc(NC(C)(C)C)n2)n1` , thanks.
Solution: 0.694 µM (active)

Problem: Need EC50 of COc1ccc(C2c3ccc(O)cc3Oc3ncn4nc(-c5ccncc5)nc4c32)cc1OC (centres undefined) , thanks.
Solution: 4.67 µM (active)

Problem: Need EC50 of `Cn1c2ccccc2c(=O)c2c(=O)n(-c3ccc(F)cc3)c(-c3cccs3)nc21` , thanks.
Solution: 9.47 µM (active)

Problem: Need EC50 of `COc1ccc(C(=O)NC(=S)NNC(=O)c2ccc(C)cc2)cc1` , thanks.
Solution: 0.361 µM (active)

Problem: Need EC50 of `O=C(NC(=S)N1CCN(c2ccc(F)cc2)CC1)C12CC3CC(CC(C3)C1)C2` , thanks.
Solution: 29.7 µM (active)

Problem: Need EC50 of `Cc1ccc(CN=C(S)Nc2ccc(NS(=O)(=O)c3ccc(C)cc3)cc2)cc1` , thanks.
Solution: 9.78 µM (active)

====

Target: Calpain-2 catalytic subunit (Sus scrofa)
Sequence (P43367 whole entry): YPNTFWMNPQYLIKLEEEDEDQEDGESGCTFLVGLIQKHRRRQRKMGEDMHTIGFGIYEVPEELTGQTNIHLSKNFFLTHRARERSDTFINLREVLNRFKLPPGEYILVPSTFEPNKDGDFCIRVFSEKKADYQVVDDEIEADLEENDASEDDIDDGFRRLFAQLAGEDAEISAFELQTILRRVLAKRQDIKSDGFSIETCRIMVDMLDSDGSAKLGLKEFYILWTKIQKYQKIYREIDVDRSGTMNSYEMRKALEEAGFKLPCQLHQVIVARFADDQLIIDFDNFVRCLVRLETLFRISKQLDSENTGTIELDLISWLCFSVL
Assay: m-calpain protease blockers, concentration series – biochemical, fluorogenic peptide substrate, dose response (AID 1420)
Assay type: functional
Active and inactive are the calls of the source.
Field: IC50. Provide a value for each of the compounds that follow.

Problem: Need IC50 of `COC(=O)c1ccc(/C=N/NS(=O)(=O)c2cc(C)ccc2C)cc1` , thanks.
Solution: 6.58 µM (not active)

Problem: Need IC50 of CCOc1ccc(NC(=NCc2ccc3c(c2)OCO3)SC2CC(=O)N(c3ccccc3)C2=O)cc1 (configuration not stated) , thanks.
Solution: > 50 µM (not active)

Problem: Need IC50 of `CCC(C)(C)NC(=O)c1ccc(S(=O)(=O)N2CCCCCC2)cc1` , thanks.
Solution: 22.9 µM (not active)

Problem: Need IC50 of `COCc1nc2ccccc2n1Cc1ccc(Br)cc1` , thanks.
Solution: 8.1 µM (not active)

Problem: Need IC50 of `CC(C)c1ccc(C(=O)NC(=S)NCc2cccnc2)cc1` , thanks.
Solution: 27 µM (not active)

Problem: Need IC50 of `CCOc1cccc(CNc2ccc(O)cc2)c1OCc1ccc(Cl)cc1Cl` , thanks.
Solution: 8.34 µM (not active)

Problem: Need IC50 of `CN1CCN(CCc2nc3cc(NC(=O)c4ccco4)ccc3n2C)CC1` , thanks.
Solution: > 50 µM (not active)

Problem: Need IC50 of CC(CCc1ccccc1)NC(=O)/C=C/c1ccc(F)cc1 (configuration not stated) , thanks.
Solution: 27.6 µM (not active)

Problem: Need IC50 of `O=C(OCc1nnn(Cc2ccccc2)c1-c1c(COC(=O)c2ccccc2)nnn1Cc1ccccc1)c1ccccc1` , thanks.
Solution: 2.52 µM (not active)

Problem: Need IC50 of `O=C(COC(=O)C1CCCCC1)Nc1cc([N+](=O)[O-])ccc1F` , thanks.
Solution: > 50 µM (not active)

Problem: Need IC50 of `Cc1ccc(NC(=O)NN(C)c2c(Cl)c(Cl)nn2C)cc1` , thanks.
Solution: > 50 µM (not active)

Problem: Need IC50 of `Cn1c(N)c(C(=O)COC(=O)C23CC4CC(CC(C4)C2)C3)c(=O)n(C)c1=O` , thanks.
Solution: 2.26 µM (active)

====

Molecular target: Sentrin-specific protease 8 (Homo sapiens, UniProt Q96LD8);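 note: luminescence read-out of SENP8 inhibition, dose-response confirmation following an ultra-high-throughput screen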
Sequence (Q96LD8 whole entry): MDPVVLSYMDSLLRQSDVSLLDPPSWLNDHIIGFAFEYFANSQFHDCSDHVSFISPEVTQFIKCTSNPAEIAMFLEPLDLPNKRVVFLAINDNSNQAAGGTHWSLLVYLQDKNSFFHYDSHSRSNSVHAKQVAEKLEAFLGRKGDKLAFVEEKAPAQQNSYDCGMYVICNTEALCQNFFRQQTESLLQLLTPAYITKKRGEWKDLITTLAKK
Format: functional
The source made the active and inactive calls.
Outcome field: choose from active, inactive

Problem: Given CC1CCCC(NC(=O)COC(=O)c2ccc([N+](=O)[O-])s2)C1C (stereo unspecified) , state the outcome it received in this test.
Solution: active

Problem: Given `COc1ccc(-n2c(NC(=O)c3ccco3)c(C#N)c3nc4ccccc4nc32)cc1` , state the outcome it received in this test.
Solution: active

Problem: Given `CCOC(=O)Nc1ccc2nc(N3CCCCCC3)sc2c1` , state the outcome it received in this test.
Solution: active

Problem: Given `O=C(Nc1cccc(Cl)c1)Nc1ccccc1C(=O)NCc1ccco1` , state the outcome it received in this test.
Solution: inactive

Problem: Given `O=C(/C=C/c1ccccc1)n1cnnc1SC/C=C/c1ccccc1` , state the outcome it received in this test.
Solution: active

Problem: Given `C/C(=N\OC(=O)c1ccc(Cl)cc1)c1nccs1` , state the outcome it received in this test.
Solution: active

====

EXPERIMENTAL ENDPOINT: AC50

Problem: Lab note: need AC50 for CO/C(O)=C1\C(C)=NC2=C(C(=O)CCC2)C1c1cn(Cc2ccc(Cl)cc2Cl)nc1-c1ccccc1 (stereo unspecified) on Cytochrome P450 2D6 (Homo sapiens), anyone have it?
Solution: 3.55 µM (inconclusive)

Problem: Lab note: need AC50 for `O=C(CCc1ccc(S(=O)(=O)NC2CCCCC2)cc1)N(Cc1ccccc1)Cc1ccccc1` on Cytochrome P450 2D6 (Homo sapiens), anyone have it?
Solution: 12.6 µM (inconclusive)

Problem: Lab note: need AC50 for `Cc1c(CCO)c(=O)n(C)n1C(=O)c1ccc(F)cc1` on Cytochrome P450 2D6 (Homo sapiens), anyone have it?
Solution: 22.4 µM (inconclusive)

Problem: Lab note: need AC50 for `COc1ccc(-c2nnn(Cc3nc(N)nc(N4CCOCC4)n3)n2)cc1OC` on Cytochrome P450 2D6 (Homo sapiens), anyone have it?
Solution: 12.6 µM (inconclusive)

Problem: Lab note: need AC50 for `CO/N=C1/c2cc(OC)ccc2O[C@@H](c2cccc(OC)c2)[C@H]1O` on Cytochrome P450 2D6 (Homo sapiens), anyone have it?
Solution: 3.16 µM (inconclusive)

Problem: Lab note: need AC50 for `CCc1c2c(nc3ccc(OC)cc13)COC2` on Cytochrome P450 2D6 (Homo sapiens), anyone have it?
Solution: 20 µM (inconclusive)

Problem: Lab note: need AC50 for `Cc1ccc(C(=O)Nc2cc3c(oc2=O)CCCC3=O)cc1` on Cytochrome P450 2D6 (Homo sapiens), anyone have it?
Solution: 0.01 µM (inconclusive)

Problem: Lab note: need AC50 for CCOC(=O)/C(C#N)=C1/SC(CC)C(=O)N1c1ccc(Br)cc1 (stereo unspecified) on Cytochrome P450 2D6 (Homo sapiens), anyone have it?
Solution: 11.2 µM (inconclusive)

Problem: Lab note: need AC50 for `Cc1ccccc1NC(=O)OCc1cn(-c2ccc(Cl)cc2)nn1` on Cytochrome P450 2D6 (Homo sapiens), anyone have it?
Solution: 0.708 µM (inconclusive)

Problem: Lab note: need AC50 for `O=C(CSc1nc2ccccc2[nH]1)NCCN1CCCCC1` on Cytochrome P450 2D6 (Homo sapiens), anyone have it?
Solution: 1.78 µM (inconclusive)

Problem: Lab note: need AC50 for CC1CCN(C(NC(=O)c2ccco2)C(=O)c2ccccc2)CC1 (stereo unspecified) on Cytochrome P450 2D6 (Homo sapiens), anyone have it?
Solution: 15.8 µM (inconclusive)
